Quick reference: GI50 of the listed items.
Test system: HOP-92 NSCLC
assay summary: NCI tumour cell line growth inhibition, 48 h

Solved cases (3 shown):
Exam item: Form entry - test system: HOP-92 NSCLC; read-out: GI50; molecule: CCCCC(OC(=O)c1ccc(N)cc1)C(=O)Nc1nc(CC(=O)OCC)cs1 (centres undefined)
Marked response: 37.5 µM

Exam item: Record lookup: for HOP-92 NSCLC, what GI50 belongs to CC[C@]12C=CCN3CC[C@@]4(c5ccc(OC)cc5N(C)[C@H]4[C@@](O)(C(=O)OC)[C@@H]1OC(=O)CCC(=O)O[C@H]1CC[C@H]4[C@@H]5CC[C@H]6CC(=O)CC[C@]6(C)[C@H]5CC[C@]14C)[C@@H]32 ?
Marked response: 1.83 µM

Exam item: Recall the recorded GI50 for FC(F)(F)c1cc(NC(=S)N2c3ccccc3-n3cccc3C2c2cccnc2)cc(C(F)(F)F)c1 (centres undefined) with HOP-92 NSCLC and state it.
Marked response: 2.93 µM

Below: the item to evaluate.
Exam item: Reported GI50 for HOP-92 NSCLC, given COc1ccc(-c2cc(-c3ccc(OC)cc3)nc(NCCCNc3ccnc4cc(Cl)ccc34)n2)cc1 ?
Marked response: 1.24 µM

* * *

Tested on: NCI/ADR-RES ovarian
assay summary: NCI tumour cell line growth inhibition, 48 h
Readings of TGI for the listed compounds

Here is how some compounds turned out for TGI.
Exam item: Entry O=C(c1ccccc1)C1OC1C(=O)c1ccccc1 (stereo not given) , system NCI/ADR-RES ovarian: what TGI was measured?
Marked response: > 100 µM

Exam item: // map COc1nc2ccc(CNc3ccc(C(=O)NC(CCC(=O)O)C(=O)O)cc3)cc2nc1OC (stereo not given) to recorded TGI (system: NCI/ADR-RES ovarian)
Marked response: > 100 µM

Exam item: # query: TGI | item O=C1/C(=C/c2ccc(F)cc2)CN(C(=O)C(Cl)Cl)C/C1=C\c1ccc(F)cc1 | system: NCI/ADR-RES ovarian
Marked response: 1.71 µM

Exam item: Look up TGI with NCI/ADR-RES ovarian for this compound: COC(=O)CCC(=O)c1ccc2c(c1)CC1(C2)Cc2ccc(C(=O)CCC(=O)OC)cc2C1
Marked response: > 100 µM

Exam item: Form: Entry = CCOc1cc(C2SCC(=O)N2c2ccc3c(c2)Oc2c(Cl)c4c(c(Cl)c2=N3)Oc2cc(N3C(=O)CSC3c3ccc(O)c(OCC)c3)ccc2N=4)ccc1O (stereo not given) | System = NCI/ADR-RES ovarian | TGI = ____
Marked response: > 100 µM

Exam item: What TGI appears in the records for this compound with NCI/ADR-RES ovarian? CC1=C(SCCO)C(=O)c2ccccc2C1=O
Marked response: 31.9 µM

Exam item: # value lookup — system NCI/ADR-RES ovarian, readout TGI, item CC(=O)OC12CC[N+]3(C)CCCCC3C1=Nc1ccccc12 (stereo not given)
Marked response: > 100 µM

Exam item: Quick check: TGI on NCI/ADR-RES ovarian, item CC1(O)C2(c3ccccc3)CCC[N+]1(C)CC2 (stereo not given) ?
Marked response: > 100 µM

Exam item: // map COc1ccc2c(=O)c3c([nH]c2c1)OCC3=O to recorded TGI (system: NCI/ADR-RES ovarian)
Marked response: > 100 µM

Moving on to the next compound.
Exam item: Form entry - test system: NCI/ADR-RES ovarian; read-out: TGI; compound: O=C1c2ccccc2C(=O)c2c1oc1c2c(=O)[nH]c2ccc(Cl)cc21
Marked response: 1.77 µM
